Data provenance: ChEMBL document CHEMBL3885861

species: Rattus norvegicus; experiment: Open TG-GATES - Regimen: Daily Repeat; type: toxicity, organism-based, Sprague-Dawley; design: regimen Daily Repeat, gender Male, age 6 weeks; details: in vivo, po, 0 mg/kg, 72 h, tissue Blood, route gavage, dose level Control, time 3 day
measurementKind: APTT

>  <compound>
COc1ccc2[nH]c([S+]([O-])Cc3ncc(C)c(OC)c3C)nc2c1 (stereo not drawn)

>  <APTT>
19.5 s

$$$$
>  <compound>
NC(N)=Nc1nc(CSCCC(N)=NS(N)(=O)=O)cs1

>  <APTT>
19.5 s

$$$$

Dear colleague, I am looking for the recorded APTT of the following compound: COC1=CC(=O)C[C@@H](C)[C@]12Oc1c(Cl)c(OC)cc(OC)c1C2=O
20.3 s
